Assay: Fraction unbound in rat plasma
Type: in vitro ADME
Settings: read-out: fup (fraction unbound in rat plasma)
Listed here: items and their measured fraction unbound.
metric name: fraction unbound

O=C1Nc2c(Cl)ccc(O[C@H]3C[C@H](C(=O)O)C3)c2C2(CCCCC2)N1 = 0.1
O=C1Nc2c(Cl)ccc(O[C@H]3C[C@@H](C(=O)O)C3)c2C2(CCCCC2)N1 = 0.07
